Taken from paper PMC11040352.

# PROTOCOL_TEXT: Ex vivo biodistribution in mice with RPMI tumor xenografts
# CONDITION_CONTEXT: both sexes, NSG, mouse, pancreas, 50 µCi, 60 min p.i.; RPMI xenograft mice; read-out: uptake in pancreas
READOUT_LABEL: tissue uptake at 1 h (%ID/g)
One number for each entry, in %ID/g.

In: Could you tell me which tissue uptake at 1 h is on file for CC[C@H](C)[C@@H]1NC(=O)[C@@H]2CCCN2C(=O)[C@H](Cc2ccccc2)NC(=O)[C@H](CC(=O)O)NC(=O)[C@H](C)NC(=O)[C@@H]2CSCc3cc(cc(c3)CSC[C@H](NC(=O)[C@H](C)NC(=O)CCOCCOCCOCCNC(=O)CN3CCN(CC(=O)O)CCN(CC(=O)O)CC3)C(=O)N[C@@H](C(C)C)C(=O)N3CCC[C@H]3C(=O)N2)CSC[C@@H](C(N)=O)NC(=O)[C@H](Cc2ccc(O)cc2)NC(=O)[C@H](Cc2c[nH]c3ccccc23)NC1=O [[^68Ga]Ga‐AJ206, metal not drawn] ?
Out: 0.48

----------
# PROTOCOL_TEXT: Ex vivo biodistribution in mice with MM1S tumor xenografts
# CONDITION_CONTEXT: both sexes, NSG, mouse, pancreas, 80 µCi, total radioactivity, 5 min p.i.; MM1S xenograft mice; read-out: uptake in pancreas
READOUT_LABEL: tissue uptake at 5 min (%ID/g)
Answers are plain numbers, in %ID/g.

In: Could you tell me which tissue uptake at 5 min is on file for CC[C@H](C)[C@@H]1NC(=O)[C@@H]2CCCN2C(=O)[C@H](Cc2ccccc2)NC(=O)[C@H](CC(=O)O)NC(=O)[C@H](C)NC(=O)[C@@H]2CSCc3cc(cc(c3)CSC[C@H](NC(=O)[C@H](C)NC(=O)CCOCCOCCOCCNC(=O)CN3CCN(CC(=O)O)CCN(CC(=O)O)CC3)C(=O)N[C@@H](C(C)C)C(=O)N3CCC[C@H]3C(=O)N2)CSC[C@@H](C(N)=O)NC(=O)[C@H](Cc2ccc(O)cc2)NC(=O)[C@H](Cc2c[nH]c3ccccc23)NC1=O [[^68Ga]Ga‐AJ206, metal not drawn] ?
Out: 3.55

----------
# PROTOCOL_TEXT: Ex vivo biodistribution in mice with MM1S tumor xenografts
# CONDITION_CONTEXT: both sexes, NSG, mouse, small intestine (with contents), 80 µCi, 60 min p.i.; MM1S xenograft mice; read-out: uptake in small intestine (with contents)
READOUT_LABEL: tissue uptake at 1 h (%ID/g)
One number for each entry, in %ID/g.

In: Could you tell me which tissue uptake at 1 h is on file for CC[C@H](C)[C@@H]1NC(=O)[C@@H]2CCCN2C(=O)[C@H](Cc2ccccc2)NC(=O)[C@H](CC(=O)O)NC(=O)[C@H](C)NC(=O)[C@@H]2CSCc3cc(cc(c3)CSC[C@H](NC(=O)[C@H](C)NC(=O)CCOCCOCCOCCNC(=O)CN3CCN(CC(=O)O)CCN(CC(=O)O)CC3)C(=O)N[C@@H](C(C)C)C(=O)N3CCC[C@H]3C(=O)N2)CSC[C@@H](C(N)=O)NC(=O)[C@H](Cc2ccc(O)cc2)NC(=O)[C@H](Cc2c[nH]c3ccccc23)NC1=O [[^68Ga]Ga‐AJ206, metal not drawn] ?
Out: 0.2

----------
# PROTOCOL_TEXT: Ex vivo biodistribution in mice with MM1S tumor xenografts
# CONDITION_CONTEXT: both sexes, NSG, mouse, kidney, 80 µCi, 120 min p.i.; MM1S xenograft mice; read-out: uptake in kidney
READOUT_LABEL: tissue uptake at 2 h (%ID/g)
One number for each entry, in %ID/g.

In: Could you tell me which tissue uptake at 2 h is on file for CC[C@H](C)[C@@H]1NC(=O)[C@@H]2CCCN2C(=O)[C@H](Cc2ccccc2)NC(=O)[C@H](CC(=O)O)NC(=O)[C@H](C)NC(=O)[C@@H]2CSCc3cc(cc(c3)CSC[C@H](NC(=O)[C@H](C)NC(=O)CCOCCOCCOCCNC(=O)CN3CCN(CC(=O)O)CCN(CC(=O)O)CC3)C(=O)N[C@@H](C(C)C)C(=O)N3CCC[C@H]3C(=O)N2)CSC[C@@H](C(N)=O)NC(=O)[C@H](Cc2ccc(O)cc2)NC(=O)[C@H](Cc2c[nH]c3ccccc23)NC1=O [[^68Ga]Ga‐AJ206, metal not drawn] ?
Out: 9.39

----------
# PROTOCOL_TEXT: Ex vivo biodistribution in mice with RPMI tumor xenografts
# CONDITION_CONTEXT: both sexes, NSG, mouse, stomach, 50 µCi, 60 min p.i.; RPMI xenograft mice; read-out: uptake in stomach
READOUT_LABEL: tissue uptake at 1 h (%ID/g)
Give bare numbers, in %ID/g.

In: Could you tell me which tissue uptake at 1 h is on file for CC[C@H](C)[C@@H]1NC(=O)[C@@H]2CCCN2C(=O)[C@H](Cc2ccccc2)NC(=O)[C@H](CC(=O)O)NC(=O)[C@H](C)NC(=O)[C@@H]2CSCc3cc(cc(c3)CSC[C@H](NC(=O)[C@H](C)NC(=O)CCOCCOCCOCCNC(=O)CN3CCN(CC(=O)O)CCN(CC(=O)O)CC3)C(=O)N[C@@H](C(C)C)C(=O)N3CCC[C@H]3C(=O)N2)CSC[C@@H](C(N)=O)NC(=O)[C@H](Cc2ccc(O)cc2)NC(=O)[C@H](Cc2c[nH]c3ccccc23)NC1=O [[^68Ga]Ga‐AJ206, metal not drawn] ?
Out: 0.45

----------
# PROTOCOL_TEXT: Ex vivo biodistribution in mice with U266 tumor xenografts
# CONDITION_CONTEXT: both sexes, NSG, mouse, kidney, 50 µCi; 60 min p.i.; U266 xenograft mice; read-out: uptake in kidney
READOUT_LABEL: tissue uptake at 1 h

In: Could you tell me which tissue uptake at 1 h is on file for CC[C@H](C)[C@@H]1NC(=O)[C@@H]2CCCN2C(=O)[C@H](Cc2ccccc2)NC(=O)[C@H](CC(=O)O)NC(=O)[C@H](C)NC(=O)[C@@H]2CSCc3cc(cc(c3)CSC[C@H](NC(=O)[C@H](C)NC(=O)CCOCCOCCOCCNC(=O)CN3CCN(CC(=O)O)CCN(CC(=O)O)CC3)C(=O)N[C@@H](C(C)C)C(=O)N3CCC[C@H]3C(=O)N2)CSC[C@@H](C(N)=O)NC(=O)[C@H](Cc2ccc(O)cc2)NC(=O)[C@H](Cc2c[nH]c3ccccc23)NC1=O [[^68Ga]Ga‐AJ206, metal not drawn] ?
Out: 21.5 %ID/g

----------
# PROTOCOL_TEXT: Ex vivo biodistribution in mice with U266 tumor xenografts
# CONDITION_CONTEXT: both sexes, NSG, mouse, tumor, 50 µCi; 60 min p.i.; U266 xenograft mice; read-out: uptake in tumor
READOUT_LABEL: tissue uptake at 1 h (%ID/g)
Numbers only, in %ID/g.

In: Could you tell me which tissue uptake at 1 h is on file for CC[C@H](C)[C@@H]1NC(=O)[C@@H]2CCCN2C(=O)[C@H](Cc2ccccc2)NC(=O)[C@H](CC(=O)O)NC(=O)[C@H](C)NC(=O)[C@@H]2CSCc3cc(cc(c3)CSC[C@H](NC(=O)[C@H](C)NC(=O)CCOCCOCCOCCNC(=O)CN3CCN(CC(=O)O)CCN(CC(=O)O)CC3)C(=O)N[C@@H](C(C)C)C(=O)N3CCC[C@H]3C(=O)N2)CSC[C@@H](C(N)=O)NC(=O)[C@H](Cc2ccc(O)cc2)NC(=O)[C@H](Cc2c[nH]c3ccccc23)NC1=O [[^68Ga]Ga‐AJ206, metal not drawn] ?
Out: 0.25

----------
# PROTOCOL_TEXT: Ex vivo biodistribution in mice with MM1S tumor xenografts
# CONDITION_CONTEXT: both sexes, NSG, mouse, femur, 80 µCi, 30 min p.i.; MM1S xenograft mice; read-out: uptake in femur
READOUT_LABEL: tissue uptake at 0.5 h (%ID/g)
Answers are plain numbers, in %ID/g.

In: Could you tell me which tissue uptake at 0.5 h is on file for CC[C@H](C)[C@@H]1NC(=O)[C@@H]2CCCN2C(=O)[C@H](Cc2ccccc2)NC(=O)[C@H](CC(=O)O)NC(=O)[C@H](C)NC(=O)[C@@H]2CSCc3cc(cc(c3)CSC[C@H](NC(=O)[C@H](C)NC(=O)CCOCCOCCOCCNC(=O)CN3CCN(CC(=O)O)CCN(CC(=O)O)CC3)C(=O)N[C@@H](C(C)C)C(=O)N3CCC[C@H]3C(=O)N2)CSC[C@@H](C(N)=O)NC(=O)[C@H](Cc2ccc(O)cc2)NC(=O)[C@H](Cc2c[nH]c3ccccc23)NC1=O [[^68Ga]Ga‐AJ206, metal not drawn] ?
Out: 0.86

----------
# PROTOCOL_TEXT: Ex vivo biodistribution in mice with U266 tumor xenografts
# CONDITION_CONTEXT: both sexes, NSG, mouse, tumor/muscle, 50 uCi, total radioactivity; 60 min p.i.; U266 xenograft mice; read-out: Tumor/Muscle ratio
# Procedure: […] Mice with 100–200 mm^3 tumor volume were used for ex vivo biodistribution studies. For radiotracer pharmacokinetics studies, mice with MOLP8 tumor xenografts received ≈80 µCi (2.96 MBq) [^68Ga]Ga‐AJ206 and were sacrificed at pre‐determined time points (5, 30, 60 and 120 min). Similarly, for dosimetry study, mice with MM1S tumor xenografts received ≈80 µCi (2.96 MBq) of [^68Ga]Ga‐AJ206 and were sacrificed at pre‐determined time points (5, 30, 60, 90 and 120 min). […]
READOUT_LABEL: tissue to tissue ratio at 1 h
Numbers only.

In: Could you tell me which tissue to tissue ratio at 1 h is on file for CC[C@H](C)[C@@H]1NC(=O)[C@@H]2CCCN2C(=O)[C@H](Cc2ccccc2)NC(=O)[C@H](CC(=O)O)NC(=O)[C@H](C)NC(=O)[C@@H]2CSCc3cc(cc(c3)CSC[C@H](NC(=O)[C@H](C)NC(=O)CCOCCOCCOCCNC(=O)CN3CCN(CC(=O)O)CCN(CC(=O)O)CC3)C(=O)N[C@@H](C(C)C)C(=O)N3CCC[C@H]3C(=O)N2)CSC[C@@H](C(N)=O)NC(=O)[C@H](Cc2ccc(O)cc2)NC(=O)[C@H](Cc2c[nH]c3ccccc23)NC1=O [[^68Ga]Ga‐AJ206, metal not drawn] ?
Out: 3.43
